Data origin, for the record: ChEMBL document CHEMBL3301472

# Method: MMV: MTT Cytotoxicity Assay Day 7 pi of Assay #11 (NO washout), U87-CD4-CXCR4 cells, % cell death @ 5mM compound
# Assay type: toxicity, cell-based
# Test settings: human, u87-cd4-cxcr4, 5000 µM
Categories are assigned from the measured % Cell Death using these intervals: interval 1 = under -10, interval 2 = from -10 up to 30, interval 3 = 30 and over

Data request: Which category does the recorded % Cell Death put CCOc1c(Cl)cc(CNCC(O)c2ccccc2)cc1OC (stereo not given) in?
Data returned: interval 1

Data request: Which category does the recorded % Cell Death put CCOc1cc(Cl)c(C(C)NC(=O)c2ccccc2)cc1OCC (stereo not given) in?
Data returned: interval 3

Data request: Which category does the recorded % Cell Death put COc1cccc(-c2nn(C)c3sc(C(=O)NCCN4CCN(c5ccccc5F)CC4)cc23)c1 in?
Data returned: interval 2

Data request: Which category does the recorded % Cell Death put COc1nc(Nc2ccc(C(C)C)cc2)nc(OC)n1 in?
Data returned: interval 2

Data request: Which category does the recorded % Cell Death put Cc1[nH]c(-c2ccc(F)cc2)cc1C(=O)NC1CCN(Cc2ccccc2)CC1 in?
Data returned: interval 2

Data request: Which category does the recorded % Cell Death put Oc1c2c(nc3cc(-c4ccccc4)nn13)CCCC2 in?
Data returned: interval 1

Data request: Which category does the recorded % Cell Death put Cc1cc(Nc2ccc(Cl)cc2)n2nc(C(F)(F)F)nc2n1 in?
Data returned: interval 1

Data request: Which category does the recorded % Cell Death put Cc1cc(C)c2c(c1)OCN(Cc1ccccc1Cl)C2 in?
Data returned: interval 3

Data request: Which category does the recorded % Cell Death put COc1ccc2sc(N(Cc3cccnc3)C(=O)c3ccc(C#N)cc3)nc2c1 in?
Data returned: interval 1

Data request: Which category does the recorded % Cell Death put CCOC(=O)C1=C(C)N=c2sc(=Cc3ccccc3O)c(=O)n2C1c1ccc(OC)c2ccccc12 (stereo not given) in?
Data returned: interval 3

Data request: Which category does the recorded % Cell Death put O=C(c1ccccc1F)N(Cc1ccc(Cl)cc1)c1ccccn1 in?
Data returned: interval 3

Data request: Which category does the recorded % Cell Death put CCN1CCCC1CNc1[nH]cnc2c3cc(Cl)ccc3nc1-2 (stereo not given) in?
Data returned: interval 2

Data request: Which category does the recorded % Cell Death put COc1cc(-c2nc(-c3ccc(Sc4ccccc4)cc3)c(-c3ccccc3)[nH]2)cc(OC)c1O in?
Data returned: interval 1

Data request: Which category does the recorded % Cell Death put CCOC(=O)c1c(C)n(-c2ccc(Cl)cc2)c2ccc(OC(=O)C=Cc3ccccc3)cc12 in?
Data returned: interval 3

Data request: Which category does the recorded % Cell Death put CCOc1cc2c(cc1OCC)C(c1cc(Cl)c(O)c(OCC)c1)NCC2 (stereo not given) in?
Data returned: interval 3

Data request: Which category does the recorded % Cell Death put CCOC(=O)c1cnc2c(C)cc(C)cc2c1Nc1ccc(OC)c(OC)c1 in?
Data returned: interval 2

Data request: Which category does the recorded % Cell Death put N#Cc1nc(Cc2cccc3ccccc23)oc1N1CCN(C(c2ccccc2)c2ccccc2)CC1 in?
Data returned: interval 1

Data request: Which category does the recorded % Cell Death put CCC1(C)CC(CCNCc2ccccc2O)(c2ccc(C)cc2)CCO1 (stereo not given) in?
Data returned: interval 2

Data request: Which category does the recorded % Cell Death put OC1CCCCC1C1(NC(=S)Nc2ccccc2)CCCCC1 (stereo not given) in?
Data returned: interval 1

Data request: Which category does the recorded % Cell Death put COc1cc(C(=O)ON=C(N)Cc2cccc3ccccc23)cc(OC)c1OC in?
Data returned: interval 1

Data request: Which category does the recorded % Cell Death put Oc1ccc(Br)cc1CN1CCN(Cc2ccc(Cl)cc2)CC1 in?
Data returned: interval 3

Data request: Which category does the recorded % Cell Death put COc1cccc(C2(C)Nc3ccccc3-c3nc4ccccc4n32)c1 (stereo not given) in?
Data returned: interval 3

Data request: Which category does the recorded % Cell Death put Cc1cc(N(C)C)nc(Nc2ccc(NC(=O)Nc3ccccc3)cc2)n1 in?
Data returned: interval 1

Data request: Which category does the recorded % Cell Death put OC(CNC1CCCCC1)Cn1c2ccccc2c2ccccc21 (stereo not given) in?
Data returned: interval 2

Data request: Which category does the recorded % Cell Death put CC(NCc1ccccc1)c1cc(Cl)ccc1O (stereo not given) in?
Data returned: interval 2

Data request: Which category does the recorded % Cell Death put Cc1c(C)n(CC(O)CNC2CCCCC2C)c2ccccc12 (stereo not given) in?
Data returned: interval 1

Data request: Which category does the recorded % Cell Death put CC(C)CCNCC(O)Cn1c2ccccc2c2ccccc21.Cl (stereo not given) in?
Data returned: interval 2

Data request: Which category does the recorded % Cell Death put CCOc1ccc2nc(C)cc(Nc3ccc(Br)cc3)c2c1 in?
Data returned: interval 3

Data request: Which category does the recorded % Cell Death put CCCN(CCC)CCCNC(=O)c1cc2c(-c3ccc(OC)c(OC)c3)nn(C)c2s1 in?
Data returned: interval 3

Data request: Which category does the recorded % Cell Death put OC(CNC1CCCC1)Cn1c2ccccc2c2ccccc21 (stereo not given) in?
Data returned: interval 2

Data request: Which category does the recorded % Cell Death put CN1CCN(c2nc(Nc3ccc(O)cc3)nc3ccccc23)CC1.Cl in?
Data returned: interval 3

Data request: Which category does the recorded % Cell Death put CCN(CC)CCCNc1ccnc2cc3ccccc3cc12 in?
Data returned: interval 3

Data request: Which category does the recorded % Cell Death put CC(=O)NCCc1nc2ccccc2n1Cc1ccc(C(C)C)cc1 in?
Data returned: interval 2

Data request: Which category does the recorded % Cell Death put Cc1ccc(CSCc2ccc(C(=O)NC3CC3)o2)cc1 in?
Data returned: interval 2

Data request: Which category does the recorded % Cell Death put CCCCCC(=O)N1c2ccccc2N=C2CC(c3ccc(OC)c(OC)c3)CC(O)=C2C1c1ccc(C(F)(F)F)cc1 (stereo not given) in?
Data returned: interval 1

Data request: Which category does the recorded % Cell Death put O=c1nc(C=Cc2ccc(Cl)cc2)oc2ccccc12 in?
Data returned: interval 1

Data request: Which category does the recorded % Cell Death put COc1ccc(Nc2cc(C)nc(NCc3ccccc3)n2)cc1 in?
Data returned: interval 3

Data request: Which category does the recorded % Cell Death put CCn1nc(-c2ccc(C(=O)OC)cc2)nc2c(=O)n(C)c(=O)nc1-2 in?
Data returned: interval 2

Data request: Which category does the recorded % Cell Death put CC(C)CNC(=O)c1c(N)n(CCc2ccccc2F)c2nc3ccccc3nc12 in?
Data returned: interval 3

Data request: Which category does the recorded % Cell Death put CC1CC(C)CN(C(=O)c2ccc(Cl)cc2Cl)C1 (stereo not given) in?
Data returned: interval 1

Data request: Which category does the recorded % Cell Death put FC(F)(F)c1cccc(Nc2nc3ccccc3nc2Nc2cccc(C(F)(F)F)c2)c1 in?
Data returned: interval 1

Data request: Which category does the recorded % Cell Death put CCCCN(CCCC)S(=O)(=O)c1ccc(NC(=O)c2ccco2)cc1 in?
Data returned: interval 3

Data request: Which category does the recorded % Cell Death put Cc1cc(C)c2nc(N3CCC(C(=O)NCCCN4CCC(N5CCCCC5)CC4)CC3)sc2c1 in?
Data returned: interval 1
